# EXPERIMENT_DESCRIPTION: Antioxidant activity assessed as total antioxidant capacity measured as ascorbic acid equivalents at 100 ug/ml after 90 mins by phosphomolybdenum method
# Format: functional
Let's look at some molecules and their measured Activity.
State the answer as a number, implicitly in µgequiv/ml.

O=[N+]([O-])c1cccc2c1NCC1C2=NN(c2ccccc2)C1c1ccccc1 (stereo not given) ... 14.9
COc1ccc(C2C(C#N)=C(N)OC3=C2CNc2c3cccc2[N+](=O)[O-])cc1 (stereo not given) ... 23.2
O=[N+]([O-])c1cc(Cl)cc2c1NCC1C2=NNC1c1ccc(Cl)cc1 (stereo not given) ... 11.8
O=[N+]([O-])c1cc(Cl)cc2c1NCC1C2=NNC1c1ccc(F)cc1 (stereo not given) ... 5.03

Reported Activity for N#CC1=C(N)OC2=C(CNc3c2cc(Cl)cc3[N+](=O)[O-])C1c1ccc(Cl)cc1 (stereo not given) : what is it?
13
